- Tested on: Serratia marcescens ATCC 13880
- Procedure Details: Serial dilution test in the microtiter system (MIC), Serrat. marcesc. ATCC 13880
- Type: cell-based
- Cond: ATCC13880, Table III, Serrat. marcesc. ATCC 13880, 37° C., 18-20 hours, read-out: MIC
- Procedure: These tests were performed according to the method of the serial dilution test in the microtiter system. The effect of the substances on bacteriostasis was examined in a fluid medium. […] A nutrient medium of the following composition was used. 10 gm of peptone, 8 gm of meat extract-oxoid, 3 gm of sodium chloride, 2 gm of sec. sodium phosphate were diluted with distilled water to […] (pH 7.2-7.4). Only in the test against streptococci 1% of glucose was added. […]
Consider the following molecules; for each one, report its MIC.
Give the number; µg/mL is assumed, so skip it.

Look up MIC: Cc1ncc(CNc2ncc(NC(=O)N[C@@H](C(=O)N[C@@H]3C(=O)N4[C@@H]3SC(C)(C)[C@@H]4C(=O)O)c3ccc(O)cc3)c(O)n2)cn1 [F]
0.5

Consider the molecule shown here: CC1(C)S[C@@H]2[C@H](NC(=O)[C@H](NC(=O)Nc3cnc(NCc4cccnc4)nc3O)c3ccc(O)cc3)C(=O)N2[C@H]1C(=O)O [A] What is its recorded MIC?
0.5

For the molecule shown here, CC1(C)S[C@@H]2[C@H](NC(=O)[C@H](NC(=O)Nc3cnc(Nc4ccc(O)nc4)nc3O)c3ccc(O)cc3)C(=O)N2[C@H]1C(=O)O [G] , give the reported MIC.
0.1
